- assay target: T1, human MSLN-R3-3 polypeptide (human)
- T1 construct: also called human MSLN-R3-3 protein; hMSLN-R3-3
- method description: ELISA, coated antigen; antibody 0.0001 nM

binder: S009-F3.45.21 (antibody, human IgG1, kappa, V domains shown, Human-murine chimeric antibody, human IgG1/kappa constant regions) VH: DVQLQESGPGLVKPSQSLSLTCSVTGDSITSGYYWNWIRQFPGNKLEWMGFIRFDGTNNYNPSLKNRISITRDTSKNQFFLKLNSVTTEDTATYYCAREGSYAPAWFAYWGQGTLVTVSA VL: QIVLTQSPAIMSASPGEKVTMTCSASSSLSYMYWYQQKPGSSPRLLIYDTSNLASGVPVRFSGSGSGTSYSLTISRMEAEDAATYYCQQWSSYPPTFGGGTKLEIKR
readout unit: OD450
OD450: 0.1
//
binder: S009-F3.7.3 (antibody, human IgG1, kappa, V domains shown, Human-murine chimeric antibody: murine VH/VL on human IgG1 heavy chain constant region and human kappa constant region) VH: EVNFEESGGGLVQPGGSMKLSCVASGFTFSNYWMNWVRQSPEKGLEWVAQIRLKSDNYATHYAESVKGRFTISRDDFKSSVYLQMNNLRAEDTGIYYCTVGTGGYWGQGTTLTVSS VL: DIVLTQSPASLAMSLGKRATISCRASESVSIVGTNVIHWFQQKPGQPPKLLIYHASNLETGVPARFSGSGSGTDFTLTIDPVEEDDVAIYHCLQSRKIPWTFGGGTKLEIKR
readout unit: OD450
OD450: 0.07
//
binder: S009-F3.80.22 (antibody, human IgG1, kappa, V domains shown, Human-murine chimeric antibody, human IgG1/kappa constant regions) VH: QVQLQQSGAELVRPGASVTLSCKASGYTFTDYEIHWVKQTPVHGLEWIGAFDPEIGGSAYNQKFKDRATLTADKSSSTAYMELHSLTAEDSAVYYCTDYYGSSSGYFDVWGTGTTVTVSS VL: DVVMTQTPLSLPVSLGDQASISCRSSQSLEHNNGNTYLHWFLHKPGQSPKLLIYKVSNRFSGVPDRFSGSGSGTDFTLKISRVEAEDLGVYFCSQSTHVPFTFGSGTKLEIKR
readout unit: OD450
OD450: 0.08
